Recorded values, source the supplement of paper PMC10126150.

system: ATP; assay: switch fluorescence ratio, 500 uM ATP over buffer (Cy3 cluster intensity, sum of 5 cycles each) (fold (ratio)); higher = stronger signal-on switching upon ATP binding; sequences stand for … in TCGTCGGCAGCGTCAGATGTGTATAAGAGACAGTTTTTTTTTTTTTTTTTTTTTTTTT…TC; conditions: aptamer strand: ATP DNA aptamer (quencher-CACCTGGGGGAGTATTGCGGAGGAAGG + anchor), 100 nM annealed; ATP concentration: 500 uM;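 further: ATP exposure 15 min at 22 °C before imaging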
// reported switch fluorescence ratio for each item listed
When you answer, write just the number.

Check out these entries, answers already filled in.
GGGTGGCCTG :: 1.03
AATGCAATTG :: 1.03
GGCAATTCTC :: 3.9
AATGGGTGGT :: 1
CGGATGAATG :: 0.999
CATGTTGAGC :: 0.996
CGGGTACGGT :: 0.992
CCACGCGGCA :: 1.19
AGGGGCTGCG :: 0.938
TTGTTGTTGG :: 1.01

Req: Please look up its switch fluorescence ratio: ACTAGTAGTC
Resp: 0.994

Req: What value of switch fluorescence ratio has been reported for the following sequence? ATGTGTCTAT
Resp: 0.998

Req: # input sequence: TAGATTGGCG ; wanted: its switch fluorescence ratio
Resp: 0.981

Req: So what's the measured switch fluorescence ratio for this one? GCGGCTGTCG
Resp: 0.948

Req: I am curious: what switch fluorescence ratio value has been reported for CAGTGAGGGA ?
Resp: 0.98

###

system: ATP; assay: switch fluorescence ratio, 500 uM ATP over buffer (Cy3 cluster intensity, sum of 5 cycles each) (fold (ratio)); higher = stronger signal-on switching upon ATP binding; sequences stand for … in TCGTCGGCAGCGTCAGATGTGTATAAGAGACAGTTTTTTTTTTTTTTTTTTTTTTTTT…TC; conditions: aptamer strand: ATP DNA aptamer (quencher-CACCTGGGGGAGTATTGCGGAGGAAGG + anchor), 100 nM annealed; ATP concentration: 500 uM;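 further: ATP exposure 15 min at 22 °C before imaging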
Experimental readout: switch fluorescence ratio
Lab note: write the figure by itself, no unit.

The following sequences have reported results that may help.
TTTCTCTACG :: 1.02
CTACTAATTA :: 1.03
AATGTTCATG :: 1.03
AAAATTTGGG :: 1.02
ATGGGGGGGC :: 1.01

Req: Request the reported switch fluorescence ratio associated with TGCGTCGGCG
Resp: 1

Req: switch fluorescence ratio for GGATAGCTCG ?
Resp: 0.987

Req: Item AAAATATGTT has what recorded switch fluorescence ratio?
Resp: 1

Req: // returns reported switch fluorescence ratio for input CCGGAGGGAG
Resp: 1.02

Req: Look up switch fluorescence ratio: CAGAGTAAGC
Resp: 1.01

Req: switch fluorescence ratio lookup needed for GGGTGTGGGG , thanks.
Resp: 0.989

###

// values below are reported switch fluorescence ratio
tested on: ATP; assay: switch fluorescence ratio, 500 uM ATP over buffer (Cy3 cluster intensity, sum of 5 cycles each) (fold (ratio)); higher = stronger signal-on switching upon ATP binding; sequences stand for … in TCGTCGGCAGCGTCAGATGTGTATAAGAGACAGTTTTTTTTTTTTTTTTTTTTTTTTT…TC; conditions: aptamer strand: ATP DNA aptamer (quencher-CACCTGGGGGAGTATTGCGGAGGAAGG + anchor), 100 nM annealed; ATP concentration: 500 uM;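 further: ATP exposure 15 min at 22 °C before imaging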
The reply should be a number, written without any unit.

GTCCGGGGCT :: 1.04
TGCGGGTAAT :: 0.999
GTGGAACATT :: 1.02
TGCATTCATG :: 0.996
AGTCCTAGCC :: 0.97
GTGCGCCGGT :: 1.02
CGGCAGGCAC :: 1.21
TCGGGGCACG :: 0.993

Req: Identify the measured switch fluorescence ratio of GATTTGATGA for ATP.
Resp: 0.996

Req: Test system ATP; read-out switch fluorescence ratio; what value for TAGTTGTTGC ?;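 further: ATP exposure 15 min at 22 °C before imaging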
Resp: 0.977

Req: API: value(readout= switch fluorescence ratio, system= ATP, query= TTATGCTATT );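 further: ATP exposure 15 min at 22 °C before imaging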
Resp: 1

Req: What reported switch fluorescence ratio corresponds to TTACGGTATA on ATP?
Resp: 1.17

Req: Which measured switch fluorescence ratio belongs to AAGTTGAATT , tested on ATP?;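 further: ATP exposure 15 min at 22 °C before imaging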
Resp: 0.99
